Target: N-arachidonyl glycine receptor (Homo sapiens)
Sequence (Q14330 whole entry): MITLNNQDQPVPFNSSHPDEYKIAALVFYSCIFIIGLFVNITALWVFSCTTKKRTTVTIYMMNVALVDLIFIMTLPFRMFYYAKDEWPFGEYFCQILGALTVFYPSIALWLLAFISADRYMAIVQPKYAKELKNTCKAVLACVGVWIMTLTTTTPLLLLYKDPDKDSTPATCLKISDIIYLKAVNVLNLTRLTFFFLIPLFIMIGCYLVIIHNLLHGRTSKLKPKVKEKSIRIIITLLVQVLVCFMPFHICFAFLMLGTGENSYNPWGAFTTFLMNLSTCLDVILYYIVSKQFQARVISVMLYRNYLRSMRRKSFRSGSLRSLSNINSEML
Assay: Antagonist activity at recombinant human GPR18 expressed in CHO cells assessed as inhibition of delta9-THC-induced beta-arrestin recruitment preincubated for 60 mins followed by delta9-THC addition for 90 mins measured for 1 sec by luminescence assay
Below, each entry is listed alongside its reported log10(IC50).
outcomeMeasure: log10(IC50) (log10 of the value in µM)

compoundSmiles	log10(IC50)
O=C1/C(=C/c2cccc(OCCOc3ccc(Cl)cc3)c2)N=C2SCCCN12	0.70
O=C1/C(=C/c2cccc(OCCCCCOc3ccc(Cl)cc3)c2)N=C2SCCCN12	0.06
CSC1=NC(=O)/C(=C/c2cccc(OCc3ccc(Cl)cc3)c2)N1	1.14
O=C1NC(SCCc2ccccc2)=N/C1=C\c1cccc(OCc2ccc(Cl)cc2)c1	0.68
O=C1NC(SCc2ccc(Br)cc2)=N/C1=C\c1cccc(OCc2ccc(Cl)cc2)c1	0.36
Cc1ccc(COc2cccc(/C=C3\N=C4SCCCN4C3=O)c2)cc1	0.56
CCc1ccc(OCCCCCCOc2cccc(/C=C3\N=C4SCCCN4C3=O)c2)cc1	1.40
O=C1/C(=C/c2cccc(OCCCCCCOc3ccc(Cl)cc3)c2)N=C2SCCCN12	-0.19
